Data provenance: patent US20240124451A1

Target: NLRP3 inflammasome (Homo sapiens)
Construct: host or cells: THP-1 human monocytic cells, PMA-treated, stimulated with gramicidin
Experiment: ASC-SPECK formation in THP-1 cells after gramicidin stimulation (NLRP3 inflammasome activation)
Type: cell-based
Conditions: PMA-treated human monocytic THP-1 cells, compound 1 h before 12.5 ug/ml gramicidin, 3 h, ASC SPECK imaging; read-out: EC50 (nM) for Examples that inhibit NLRP3 inflammasome activation
Parameter: EC50 (nM)

Known EC50 results, listed for orientation:
C[C@]1(O)CCN(c2nnc(-c3ccc(C(F)(F)F)cc3O)c3ccncc23)C1 (single isomer, unassigned) = 49
C[C@@H]1CN(c2nnc(-c3ccc(C(F)(F)F)cc3O)c3cnncc23)C[C@H](C)O1 = 80
Oc1cc(C(F)(F)F)ccc1-c1nnc(N2CCC(O)(C(F)(F)F)C2)c2ncccc12 (racemic) = 1230

a. C[C@@H]1CN(c2nnc(-c3ccc(C(F)(F)F)cc3O)c3cnccc23)C[C@H](C)O1
b. C[C@@H]1C[C@](O)(c2nnc(-c3ccc(C(F)(F)F)cc3O)c3cccnc23)C[C@H](C)O1
c. Cc1cccc2c(N3C[C@@H](C)O[C@@H](C)C3)nnc(-c3ccc(C(F)(F)F)cc3O)c12
d. Oc1cc(C(F)(F)F)ccc1-c1nnc(N2CCC3(CCCO3)C2)c2ncccc12 (racemic)
e. Oc1cc(C(F)(F)F)ccc1-c1nnc(N2CCC(O)(c3ccccc3)C2)c2ncccc12 (racemic)
-- ask Hello, I need these entries ordered by EC50, highest reading first. Thanks! # the answer lists labels in the order requested
-- reply c, e, b, a, d
(c: 3680 nM, e: 1600 nM, b: 1100 nM, a: 556 nM, d: 353 nM)

a. CC1(C)CCOC12CCN(c1nnc(-c3ccc(C(F)(F)F)cc3O)c3cccnc13)CC2
b. O=C1NC2(CCN(c3nnc(-c4ccc(C(F)(F)F)cc4O)c4cccnc34)CC2)CO1
-- ask Form: Entry with minimum EC50 (choose one): a / b Returns: label corresponding to the selected item.
-- reply b
(b: 148 nM, a: 1130 nM)

====

Molecular target: NLRP3 inflammasome (Homo sapiens, UniProt Q96P20)
Construct: host or cells: THP-1 human monocytic cells, PMA-treated, stimulated with gramicidin
Sequence (Q96P20 whole entry): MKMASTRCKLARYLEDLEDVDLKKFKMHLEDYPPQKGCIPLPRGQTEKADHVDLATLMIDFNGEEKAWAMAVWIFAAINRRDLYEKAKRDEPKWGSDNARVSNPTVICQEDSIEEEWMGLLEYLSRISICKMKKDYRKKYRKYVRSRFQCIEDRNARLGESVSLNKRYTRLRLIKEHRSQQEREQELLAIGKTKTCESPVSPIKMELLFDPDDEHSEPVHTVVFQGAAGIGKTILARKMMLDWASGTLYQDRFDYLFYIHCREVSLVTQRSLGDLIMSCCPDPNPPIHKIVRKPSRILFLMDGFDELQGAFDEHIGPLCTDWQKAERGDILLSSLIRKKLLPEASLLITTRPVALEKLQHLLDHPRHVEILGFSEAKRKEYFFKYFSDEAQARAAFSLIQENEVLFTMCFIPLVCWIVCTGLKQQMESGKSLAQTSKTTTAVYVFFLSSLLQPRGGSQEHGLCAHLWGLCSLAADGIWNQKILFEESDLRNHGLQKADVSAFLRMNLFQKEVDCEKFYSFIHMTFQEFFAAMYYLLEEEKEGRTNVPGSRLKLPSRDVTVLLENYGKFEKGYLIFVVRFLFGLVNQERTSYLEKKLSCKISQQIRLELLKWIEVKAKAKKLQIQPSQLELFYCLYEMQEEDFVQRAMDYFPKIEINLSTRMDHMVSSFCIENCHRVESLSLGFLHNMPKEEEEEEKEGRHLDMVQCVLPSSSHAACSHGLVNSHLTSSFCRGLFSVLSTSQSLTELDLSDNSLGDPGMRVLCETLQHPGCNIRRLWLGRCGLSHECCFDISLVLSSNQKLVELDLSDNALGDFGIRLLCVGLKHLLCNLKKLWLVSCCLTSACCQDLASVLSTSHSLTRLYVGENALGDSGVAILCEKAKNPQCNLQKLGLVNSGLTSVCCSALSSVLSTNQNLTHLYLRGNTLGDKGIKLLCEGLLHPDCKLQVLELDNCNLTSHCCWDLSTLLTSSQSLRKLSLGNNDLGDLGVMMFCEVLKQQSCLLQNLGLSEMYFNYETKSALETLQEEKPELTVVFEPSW
Assay: ASC-SPECK formation in THP-1 cells after gramicidin stimulation (NLRP3 inflammasome activation)
Assay type: cell-based
Settings: PMA-treated human monocytic THP-1 cells, compound 1 h before 12.5 ug/ml gramicidin, 3 h, ASC SPECK imaging; read-out: EC50 (nM) for Examples that inhibit NLRP3 inflammasome activation
Parameter: EC50 (nM)

O=C1NCC2(CCN(c3nnc(-c4ccc(C(F)(F)F)cc4O)c4cccnc34)CC2)O1 = 304

a. C[C@@H]1CN(c2nnc(-c3ccc(C(F)(F)F)cc3O)c3cnncc23)C[C@H](C)[C@]1(C)O
b. C[C@@H]1CN(c2nnc(-c3ccc(C(F)(F)F)cc3O)c3ccncc23)C[C@H](C)[C@]1(C)O (single isomer, unassigned)
c. CC(C)(O)[C@@H]1CCN(c2nnc(-c3ccc(C(F)(F)F)cc3O)c3cccnc23)C1
-- ask Order each entry by recorded EC50, climbing from the minimum. Put the labels in the requested order and list them out.
-- reply b, a, c

====

Biological target: NLRP3 inflammasome (Homo sapiens)
Construct: host or cells: THP-1 human monocytic cells, PMA-treated, stimulated with gramicidin
Assay: ASC-SPECK formation in THP-1 cells after gramicidin stimulation (NLRP3 inflammasome activation)
Format: cell-based
Settings: PMA-treated human monocytic THP-1 cells, compound 1 h before 12.5 ug/ml gramicidin, 3 h, ASC SPECK imaging; read-out: EC50 (nM) for Examples that inhibit NLRP3 inflammasome activation
Parameter: EC50 (nM)

C[C@@H]1CN(c2nnc(-c3ccc(C(F)(F)F)cc3OC(F)F)c3ccncc23)C[C@H](C)O1 [Example 7] = 570

a. C[C@]1(O)CCN(c2nnc(-c3ccc(C(F)(F)F)cc3O)c3cccnc23)C1 [Example 22]
b. CC(=O)N1CCCC12CCN(c1nnc(-c3ccc(C(F)(F)F)cc3O)c3cccnc13)CC2 [Example 34]
-- ask Quick one: lower EC50, a or b ? // return label of chosen record
-- reply a
(a: 124 nM, b: 1510 nM)
